# System: PsFOMT
# protocol text: In vitro enzyme assay and kinetics of recombinant PsFOMT with flavonoid substrates
# Type: biochemical, Paeonia suffruticosa cv. 'Gunpohden'
# condition set: purified recombinant PsFOMT, 200 μM SAM, 1 mM MgCl2, pH 7.5, 35° C.; means (SE) of triplicate assays
recorded metric: Kcat × 10

>  <molecule>
OC[C@H]1O[C@@H](Oc2cc3c(O[C@@H]4O[C@H](CO)[C@@H](O)[C@H](O)[C@H]4O)cc(O)cc3[o+]c2-c2ccc(O)c(O)c2)[C@H](O)[C@@H](O)[C@@H]1O [Cyanidin 3,5-di-O-glucoside]

>  <result>
127.70 (1.05) s^−1

$$$$
>  <molecule>
OC[C@H]1O[C@@H](Oc2cc3c(O)cc(O)cc3[o+]c2-c2ccc(O)cc2)[C@H](O)[C@@H](O)[C@@H]1O [Pelargonidin 3-O-glucoside]

>  <result>
—

$$$$
>  <molecule>
O=c1c(O)c(-c2ccc(O)cc2)oc2cc(O)cc(O)c12

>  <result>
—

$$$$
>  <molecule>
O=C1C[C@@H](c2ccc(O)cc2)Oc2cc(O)cc(O)c21

>  <result>
—

$$$$
